Data credit: patent US12637427B2

biological target: recombinant human ALDH-2 (Homo sapiens); assay: ALDH-2 inhibition assay; conditions: 60 min pre-incubation; 10 μM = highest concentration tested; read-out: Enzymatic Assays IC50 ALDH2
Sequence (P05091 18-517): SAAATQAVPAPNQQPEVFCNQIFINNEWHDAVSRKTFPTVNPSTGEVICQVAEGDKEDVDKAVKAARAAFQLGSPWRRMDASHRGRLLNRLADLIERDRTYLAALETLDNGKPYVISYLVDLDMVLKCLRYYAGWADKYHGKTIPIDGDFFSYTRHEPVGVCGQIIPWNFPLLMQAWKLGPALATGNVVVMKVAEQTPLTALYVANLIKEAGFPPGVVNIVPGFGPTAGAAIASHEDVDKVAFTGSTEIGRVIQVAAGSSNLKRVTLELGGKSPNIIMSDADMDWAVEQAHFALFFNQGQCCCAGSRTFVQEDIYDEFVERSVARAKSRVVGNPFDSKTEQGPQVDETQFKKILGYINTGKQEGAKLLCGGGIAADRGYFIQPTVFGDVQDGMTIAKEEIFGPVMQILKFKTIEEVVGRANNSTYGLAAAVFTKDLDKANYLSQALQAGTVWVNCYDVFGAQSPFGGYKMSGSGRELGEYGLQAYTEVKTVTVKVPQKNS
recorded-endpoint: IC50 (nM)
Write it as a number; the unit nM goes unstated.

Cc1nccc(Cl)c1C(=O)NCc1ccc(-c2cccc(=O)[nH]2)cc1 :: 128
O=C(NCc1ccc(-c2[nH]c(=O)ccc2F)nc1)c1c(Cl)cccc1Cl :: 4
Cc1cccc(Cl)c1C(=O)NCc1cnc(-c2cccc(=O)[nH]2)nc1 :: 31

I'm curious: which IC50 was measured for Cc1cccc(Cl)c1C(=O)NCc1ccc(-c2cccc(=O)[nH]2)cc1 tested on recombinant human ALDH-2 (Homo sapiens)? 78

I'm curious: which IC50 was measured for Cc1nccc(Cl)c1C(=O)NCc1ccc(-c2cccc(=O)[nH]2)nc1 tested on recombinant human ALDH-2 (Homo sapiens)? 980
